For each record, write down the corresponding log10 MBC.
Test system: Escherichia coli
Assay name: Bactericidal activity against multidrug-resistant Escherichia coli BW54 after 24 hrs by CFU counting assay
Format: functional
Condition summary: BW54, 24 h
Heads up: the numbers are on a log10 scale; they represent MBC in µg/mL.

Recorded log10 MBC (molecule CO/N=C(\C(=O)N[C@@H]1C(=O)N2C(C(=O)O)=C(CSc3nc(=O)c(O)nn3C)CS[C@H]12)c1csc(N)n1 ): -0.30

Recorded log10 MBC (molecule O=P(Oc1ccccc1)(Oc1ccccc1)[C@](O)(CCl)c1ccccc1 ): 1.81

Recorded log10 MBC (molecule CC1(C)COP(=O)([C@@](O)(CCl)c2ccc(Cl)cc2)OC1 ): 2.11

Recorded log10 MBC (molecule O=C(O)c1cn(C2CC2)c2cc(N3CCNCC3)c(F)cc2c1=O ): 0.60

Recorded log10 MBC (molecule C[C@@H]1O[C@@H]1P(=O)(O)O ): 1.51

Recorded log10 MBC (molecule O=P(Oc1ccccc1)(Oc1ccccc1)[C@@]1(O)CCC[C@@H]1Cl (mixture of isomers) ): 2.41

Recorded log10 MBC (molecule O=P(Oc1ccccc1)(Oc1ccccc1)[C@](O)(CCl)c1ccc(Cl)cc1 ): 1.81

Recorded log10 MBC (molecule O=P(Oc1ccccc1)(Oc1ccccc1)[C@@]1(O)c2ccccc2C[C@@H]1Cl (mixture of isomers) ): 2.41

---

For each record, write down the corresponding MBC.
System: Escherichia coli
Assay name: Bactericidal activity against ESBL-producing Escherichia coli BW55 after 24 hrs by CFU counting assay
Format: functional
Condition summary: BW55, 24 h
Respond with a number, then the unit of measure.

Recorded MBC (compound C[C@](O)(CCl)P(=O)(Oc1ccccc1)Oc1ccccc1 ): 256 µg/mL

Recorded MBC (compound O=P(Oc1ccccc1)(Oc1ccccc1)[C@](O)(CCl)c1ccc(Cl)cc1 ): 64 µg/mL

Recorded MBC (compound O=C(O)c1cn(C2CC2)c2cc(N3CCNCC3)c(F)cc2c1=O ): 1 µg/mL

Recorded MBC (compound O=P(Oc1ccccc1)(Oc1ccccc1)[C@@]1(O)CCC[C@@H]1Cl (mixture of isomers) ): 256 µg/mL

Recorded MBC (compound CO/N=C(\C(=O)N[C@@H]1C(=O)N2C(C(=O)O)=C(CSc3nc(=O)c(O)nn3C)CS[C@H]12)c1csc(N)n1 ): 64 µg/mL

---

Tested on: Staphylococcus aureus
Assay name: Bactericidal activity against Staphylococcus aureus ATCC 29213 after 24 hrs by CFU counting assay
Assay type: functional
Condition summary: ATCC 29213, 24 h
For each record, write down the corresponding MBC.
Write down the numeric answer in µg/mL and omit the unit.

Recorded MBC (compound O=P(Oc1ccccc1)(Oc1ccccc1)[C@](O)(CCl)c1ccc(Cl)cc1 ): 64

Recorded MBC (compound C[C@@H]1O[C@@H]1P(=O)(O)O [FOSFOMYCIN] ): 64

Recorded MBC (compound CO/N=C(\C(=O)N[C@@H]1C(=O)N2C(C(=O)O)=C(CSc3nc(=O)c(O)nn3C)CS[C@H]12)c1csc(N)n1 [CEFTRIAXONE] ): 4

Recorded MBC (compound O=C(O)c1cn(C2CC2)c2cc(N3CCNCC3)c(F)cc2c1=O [CIPROFLOXACIN] ): 4

Entry source: ChEMBL document CHEMBL3098034
